A collection of molecules and their measured RLU
# tgt: mouse Tas2r144 (Mus musculus)
# Construct: expressed in transfected cells; host or cells: HEK293T-Gα16gust44
# Sequence (Q7TQB8 whole entry): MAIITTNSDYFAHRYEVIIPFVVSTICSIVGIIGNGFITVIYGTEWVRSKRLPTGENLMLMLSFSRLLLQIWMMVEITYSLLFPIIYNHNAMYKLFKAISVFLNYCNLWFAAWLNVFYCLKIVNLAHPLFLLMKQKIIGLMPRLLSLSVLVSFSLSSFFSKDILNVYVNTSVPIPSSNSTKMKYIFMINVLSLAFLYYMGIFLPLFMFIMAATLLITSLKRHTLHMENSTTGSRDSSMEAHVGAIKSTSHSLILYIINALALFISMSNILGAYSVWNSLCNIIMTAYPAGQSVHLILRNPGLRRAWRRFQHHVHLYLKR
# assay.overview: Calcium imaging assay (FLIPR), HEK293T-Gα16gust44 cells transfected with mouse Tas2r144
# Assay type: cell-based
# test.parameters: Time 30.781 s
Provide only the numeric value, understood in RLU.

Answered examples (3):
{"molecule": "C[C@H](CCC(=O)NCCS(=O)(=O)O)[C@H]1CC[C@H]2[C@@H]3[C@H](O)C[C@@H]4C[C@H](O)CC[C@]4(C)[C@H]3C[C@H](O)[C@]12C [Taurocholic Acid, taurocholic acid]", "test.result": 191.931}
{"molecule": "C[C@H](CCC(=O)NCC(=O)O)[C@H]1CC[C@H]2[C@@H]3[C@H](O)C[C@@H]4C[C@H](O)CC[C@]4(C)[C@H]3C[C@H](O)[C@]12C [Glycocholic Acid, glycocholic acid]", "test.result": 135.498}
{"molecule": "C[C@H](CCC(=O)NCCS(=O)(=O)O)[C@H]1CC[C@H]2[C@@H]3CC[C@@H]4C[C@H](O)CC[C@]4(C)[C@H]3CC[C@]12C [Taurolithocholic Acid, taurolithocholic acid]", "test.result": 41.688}

// switching to the query molecule
# lookup: RLU of C[C@H](CCC(=O)O)[C@H]1CC[C@H]2[C@@H]3[C@H](O)C[C@@H]4C[C@H](O)CC[C@]4(C)[C@H]3C[C@H](O)[C@]12C [Cholic Acid, cholic acid] 367.762
